# System Name: PRKCZ (human) (UniProt Q05513)
# Sequence (Q05513 whole entry, looked up): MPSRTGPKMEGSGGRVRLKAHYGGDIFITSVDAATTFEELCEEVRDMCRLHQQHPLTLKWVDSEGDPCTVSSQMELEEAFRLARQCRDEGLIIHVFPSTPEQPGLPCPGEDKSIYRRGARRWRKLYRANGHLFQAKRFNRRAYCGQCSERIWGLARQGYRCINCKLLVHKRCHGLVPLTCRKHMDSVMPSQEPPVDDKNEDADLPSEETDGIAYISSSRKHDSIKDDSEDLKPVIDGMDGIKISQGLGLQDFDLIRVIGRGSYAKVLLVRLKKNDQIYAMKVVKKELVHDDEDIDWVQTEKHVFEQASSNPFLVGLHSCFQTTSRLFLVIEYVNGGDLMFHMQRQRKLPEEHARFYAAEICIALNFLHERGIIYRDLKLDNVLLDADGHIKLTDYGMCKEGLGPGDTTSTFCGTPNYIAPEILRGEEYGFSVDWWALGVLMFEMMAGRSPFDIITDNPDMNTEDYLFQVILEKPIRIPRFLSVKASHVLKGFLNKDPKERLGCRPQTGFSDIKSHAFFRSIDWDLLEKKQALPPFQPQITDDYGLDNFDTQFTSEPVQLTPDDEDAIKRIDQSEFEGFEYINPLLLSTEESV
# Assay Method Text: radiometric filter-binding kinase assay
# Assay Context: compound 1.0 µM
Test Readout: residual activity (%)

Q) Bench note: what residual activity did CC1=C(CO)C(=O)O[C@@H]([C@@H](C)[C@H]2CC[C@H]3[C@@H]4C[C@H]5O[C@]56[C@@H](O)C=CC(=O)[C@]6(C)C4CC[C@]23C)C1 (some centres undefined) show?
A) 110

Q) Bench note: what residual activity did C[C@H]1CCCC(=O)CCC/C=C/c2cc(O)cc(O)c2C(=O)O1 show?
A) 98

[a] Cc1ccc(-c2ccc3c(ccc4sc5c(c43)NC[C@@H](C)NC5=O)n2)cn1
[b] NC(=O)Nc1ccc2c(c1)/C(=C/c1cc(-c3cccnc3)c[nH]1)C(=O)N2
Q) Would you mind telling me which has the lower recorded residual activity between a and b ? Output the label that corresponds to your choice.
A) b

---

# System Name: MKNK1 (human) (UniProt Q9BUB5)
# Sequence (Q9BUB5 whole entry, looked up): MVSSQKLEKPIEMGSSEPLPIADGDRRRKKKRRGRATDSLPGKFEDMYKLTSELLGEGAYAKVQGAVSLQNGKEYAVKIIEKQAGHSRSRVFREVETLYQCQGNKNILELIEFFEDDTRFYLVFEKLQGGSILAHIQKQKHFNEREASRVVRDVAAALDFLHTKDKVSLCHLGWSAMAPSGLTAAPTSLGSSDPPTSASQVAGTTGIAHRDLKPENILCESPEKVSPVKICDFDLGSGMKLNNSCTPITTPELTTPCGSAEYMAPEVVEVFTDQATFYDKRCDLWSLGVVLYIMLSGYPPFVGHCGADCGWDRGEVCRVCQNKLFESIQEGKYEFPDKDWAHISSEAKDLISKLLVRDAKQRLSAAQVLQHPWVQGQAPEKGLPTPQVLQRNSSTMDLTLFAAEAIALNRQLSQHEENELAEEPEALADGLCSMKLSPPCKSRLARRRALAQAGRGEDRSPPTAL
# Assay Method Text: radiometric filter-binding kinase assay
# Assay Context: compound 1.0 µM
Test Readout: residual activity (%)

Solved cases below.
Q) Enter reported residual activity observed with MKNK1 (human) (UniProt Q9BUB5) for O=C(O)c1ccc(-c2c[nH]c3ncc(-c4ccccc4)cc23)cc1C1CCCC1
A) 3

Q) Enter reported residual activity observed with MKNK1 (human) (UniProt Q9BUB5) for Oc1ccc2ccccc2c1SSc1c(O)ccc2ccccc12
A) 88

Q) Enter reported residual activity observed with MKNK1 (human) (UniProt Q9BUB5) for CC(C)(C#N)c1ccc(N2C(=O)OCc3cnc4ccc(-c5cnc6ccccc6c5)cc4c32)cc1
A) 89

Q) Enter reported residual activity observed with MKNK1 (human) (UniProt Q9BUB5) for Cc1cccc(-c2nn(C(=S)Nc3ccccc3)cc2-c2ccnc3ccccc23)n1
A) 93

Q) Enter reported residual activity observed with MKNK1 (human) (UniProt Q9BUB5) for Cc1nc(-c2ccc(OCC(C)C)c(C#N)c2)sc1C(=O)O
A) 106

Q) Enter reported residual activity observed with MKNK1 (human) (UniProt Q9BUB5) for NC(=O)c1c(NC(=O)C2CC2)sc2c1CCCC2
A) 97

Q) Enter reported residual activity observed with MKNK1 (human) (UniProt Q9BUB5) for O=C1Nc2nc(-c3c(O)cccc3OCC3CC3)cc(C3CCCNC3)c2CO1 (stereo not given)
A) 97

[a] CCn1c(-c2nonc2N)nc2cncc(CNC3CCNCC3)c21
[b] c1ccc2c(-c3cnn4cc(-c5ccc(N6CCNCC6)cc5)cnc34)ccnc2c1
[c] CNC(=O)C1[C@H]2O[C@@](C)([C@@H]1N)n1c3ccccc3c3c4c(c5c6ccccc6n2c5c31)C(=O)NC4 (stereo not given in full)
Q) List by increasing residual activity. I would appreciate it if you listed the labels in the requested order.
A) c, b, a
(c: 9%, b: 63%, a: 100%)

---

# System Name: MAPKAPK2 (human) (UniProt P49137)
# Sequence (P49137 whole entry, looked up): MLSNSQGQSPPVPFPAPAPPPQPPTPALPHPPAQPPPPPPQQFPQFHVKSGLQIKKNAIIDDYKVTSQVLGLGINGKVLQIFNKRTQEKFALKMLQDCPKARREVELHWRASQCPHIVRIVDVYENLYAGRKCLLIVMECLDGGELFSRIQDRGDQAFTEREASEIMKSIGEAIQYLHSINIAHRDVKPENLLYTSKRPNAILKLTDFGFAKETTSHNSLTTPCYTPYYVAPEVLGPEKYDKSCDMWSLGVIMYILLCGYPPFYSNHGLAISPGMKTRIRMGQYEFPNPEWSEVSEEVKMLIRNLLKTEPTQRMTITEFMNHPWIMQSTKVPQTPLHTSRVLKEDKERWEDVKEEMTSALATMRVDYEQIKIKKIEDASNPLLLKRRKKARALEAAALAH
# Assay Method Text: radiometric filter-binding kinase assay
# Assay Context: compound 1.0 µM
Test Readout: residual activity (%)

Q) Bench note: what residual activity did CN(C)C/C=C/C(=O)Nc1cccc(C(=O)Nc2ccc(Nc3nccc(-c4cccnc4)n3)cc2)c1 show?
A) 106

Q) Bench note: what residual activity did O=C(NCCCNc1nc(Nc2cccc(CN3CCOCC3)c2)ncc1C1CC1)C1CCC1 show?
A) 114

Q) Bench note: what residual activity did NC1(c2ccc(-c3nc4ccn5c(=O)[nH]nc5c4cc3-c3ccccc3)cc2)CCC1 show?
A) 110

Q) Bench note: what residual activity did O=C(O)c1ccc(-c2c[nH]c3ncc(-c4ccccc4)cc23)cc1C1CCCC1 show?
A) 103

Q) Bench note: what residual activity did Cc1cc(SCc2sc(-c3ccc(C(F)(F)F)cc3)nc2C)ccc1OCC(=O)O show?
A) 97

Q) Bench note: what residual activity did Cc1cccc(Nc2nn(C)c3ncnc(N)c23)c1 show?
A) 101

Q) Bench note: what residual activity did Cc1ccc(Sc2cnc(Nc3cccc(Br)n3)s2)cc1C(=O)N1CCN(C(=O)CN)CC1 show?
A) 86

Q) Bench note: what residual activity did O=C(N[C@@H](COc1ccc2[nH]c(=O)[nH]c2c1)c1ccccc1)c1cccn(Cc2ccc(F)c(F)c2)c1=O show?
A) 101

Q) Bench note: what residual activity did NC(=O)c1cc2c(-c3cccc(-c4ccccc4)c3)cnc(N)c2s1 show?
A) 101
